target: HER-2 (Homo sapiens, UniProt P04626); construct: the nucleotides encoding amino acids 679 to 1255 of HER-2; HIS6-Thrombin (His6 tag and thrombin site) (N); assay: HER-2 Kinase Assay; details: GST-HER2, 1 μM ATP
Sequence (P04626 679-1255): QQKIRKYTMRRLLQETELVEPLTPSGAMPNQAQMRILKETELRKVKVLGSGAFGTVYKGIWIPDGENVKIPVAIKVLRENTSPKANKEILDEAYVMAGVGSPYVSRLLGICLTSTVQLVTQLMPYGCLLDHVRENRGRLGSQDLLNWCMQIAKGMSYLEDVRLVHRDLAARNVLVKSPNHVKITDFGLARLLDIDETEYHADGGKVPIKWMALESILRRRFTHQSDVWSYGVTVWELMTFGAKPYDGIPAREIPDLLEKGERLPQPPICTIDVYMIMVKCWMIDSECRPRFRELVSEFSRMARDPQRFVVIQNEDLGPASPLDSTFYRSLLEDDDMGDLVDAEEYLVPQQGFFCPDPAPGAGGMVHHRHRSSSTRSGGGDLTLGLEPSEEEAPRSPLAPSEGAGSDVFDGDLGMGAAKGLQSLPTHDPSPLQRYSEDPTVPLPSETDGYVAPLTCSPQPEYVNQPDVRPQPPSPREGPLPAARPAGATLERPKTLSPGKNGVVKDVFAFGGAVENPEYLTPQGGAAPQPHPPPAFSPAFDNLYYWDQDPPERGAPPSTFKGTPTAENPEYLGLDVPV
Observed Property: IC50

Solved entries:
Cc1c(C(=O)NCCN2CCOCC2)sc2ncnc(Nc3ccc(NC(=O)c4ccccc4)cc3)c12 [Cpd 25]    > 100 µM
Cc1cc2c(F)c(Oc3ncnc4sc(C(=O)NCCN5CCCC5)c(C)c34)ccc2[nH]1 [Cpd 22]    > 100 µM
Cc1cc2c(F)c(Oc3ncnc4sc(C(=O)NCCN5CCOCC5)c(C)c34)ccc2[nH]1 [Cpd 19]    > 100 µM

Asked: Supply reported IC50 belonging to this compound: Cc1c(C(=O)NCCN2CCOCC2)sc2ncnc(Nc3ccc(Oc4ccccc4)cc3)c12 [Cpd 24]
Given back: > 10 µM

---

tested on: A375 malignant melanoma; assay: Cell Proliferation Inhibition Assay (14C-thymidine incorporation), A375; type: cell-based; settings: Homo sapiens, A-375; A375 cells
Give IC50 for every item shown.
One number for each entry, in nM.

Solved entries:
Cc1c(C(=O)Nc2ccc(CN3CCOCC3)cc2)sc2ncnc(Nc3ccc(Oc4ccccc4)cc3)c12    2900
Cc1cc2c(F)c(Oc3ncnc4sc(C(=O)NCCN5CCCCC5)c(C)c34)ccc2[nH]1    1500

Please examine the following record next.
Asked: Supply reported IC50 belonging to this molecule: Cc1cc2c(F)c(Oc3ncnc4sc(C(=O)NCCN5CCCC5)c(C)c34)ccc2[nH]1
Given back: 2200

---

biological target: EGFR (Homo sapiens); construct: The intracellular portion of EGFR started at nucleotide 2189 (corresponding to amino acid 667) and ended at the termination codon; assay: EGFR Kinase Assay; conditions: GST-EGFR intracellular portion, 5 μM ATP
# label = True if IC50 < 60 pM else False

Solved cases (10 shown):
COc1ccc(NC(=O)c2sc3ncnc(Nc4ccc(F)c(Cl)c4)c3c2N)cc1OC    False
CN(C)Cc1ccc(NC(=O)c2sc3ncnc(Nc4ccc(F)c(Cl)c4)c3c2N)cc1    True
Nc1c(C(=O)Nc2ccc(Oc3ccccc3)cc2)sc2ncnc(Nc3ccc(F)c(Cl)c3)c12    False
CC(C)Oc1ccc(NC(=O)c2sc3ncnc(Nc4ccc(F)c(Cl)c4)c3c2N)cc1    False
CN(Cc1ccc(NC(=O)c2sc3ncnc(Nc4ccc(F)c(Cl)c4)c3c2N)cc1)C[C@H]1CCCO1    True
CN(C)CCCNS(=O)(=O)c1ccc(NC(=O)c2sc3ncnc(Nc4ccc(F)c(Cl)c4)c3c2N)cc1    True
CN(CCc1ccc(NC(=O)c2sc3ncnc(Nc4ccc(F)c(Cl)c4)c3c2N)cc1)C1CCOCC1    False
Nc1c(C(=O)Nc2ccc(CN3CCCCC3)cc2)sc2ncnc(Nc3ccc(F)c(Cl)c3)c12    True
Nc1c(C(=O)NCCN2CCOCC2)sc2ncnc(Nc3ccc(F)c(Cl)c3)c12    False
Nc1c(C(=O)Nc2ccc(OC(F)(F)F)cc2)sc2ncnc(Nc3ccc(F)c(Cl)c3)c12    False

Next up:
Asked: Hello, is IC50 of the following molecule strictly smaller than 60 pM? COc1ccc(NC(=O)c2sc3ncnc(Nc4ccc(F)c(Cl)c4)c3c2N)cn1
Given back: False

---

Give pIC50 for every item shown.
molecular target: EGFR (Homo sapiens, UniProt P00533); construct: The intracellular portion of EGFR started at nucleotide 2189 (corresponding to amino acid 667) and ended at the termination codon; experiment: EGFR Kinase Assay; conditions: GST-EGFR intracellular portion, 5 μM ATP
Sequence (P00533 669-1210 limits assumed): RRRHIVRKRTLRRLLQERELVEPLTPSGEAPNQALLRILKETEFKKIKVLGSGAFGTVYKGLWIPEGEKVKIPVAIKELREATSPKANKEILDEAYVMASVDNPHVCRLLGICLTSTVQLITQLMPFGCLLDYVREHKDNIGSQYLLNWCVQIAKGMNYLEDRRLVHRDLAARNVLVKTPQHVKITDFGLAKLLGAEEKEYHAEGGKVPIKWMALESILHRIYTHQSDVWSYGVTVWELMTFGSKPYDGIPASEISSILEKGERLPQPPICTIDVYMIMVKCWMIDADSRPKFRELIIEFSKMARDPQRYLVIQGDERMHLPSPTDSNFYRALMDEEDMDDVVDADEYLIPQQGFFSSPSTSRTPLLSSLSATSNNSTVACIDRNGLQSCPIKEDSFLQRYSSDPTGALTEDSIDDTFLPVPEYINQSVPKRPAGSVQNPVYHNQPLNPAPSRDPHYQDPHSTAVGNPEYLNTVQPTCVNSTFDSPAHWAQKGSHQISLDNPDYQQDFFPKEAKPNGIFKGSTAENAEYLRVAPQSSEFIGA
Give bare numbers, as −log10 of the molar value.

Solved entries:
COc1ccc(CCNC(=O)c2sc3ncnc(Nc4ccc(F)c(Cl)c4)c3c2N)cc1OC    9.66
COc1ccc(CNC(=O)c2sc3ncnc(Nc4ccc(F)c(Cl)c4)c3c2N)cc1OC    9.75
CN1CCN(Cc2ccc(NC(=O)c3sc4ncnc(Nc5ccc(F)c(Cl)c5)c4c3N)cc2)CC1    10.17
CN(Cc1ccc(NC(=O)c2sc3ncnc(Nc4ccc(F)c(Cl)c4)c3c2N)cc1)C[C@@H]1CCCO1    10.21

Please examine the following record next.
Asked: Supply reported pIC50 belonging to this compound: Nc1c(C(=O)Nc2ccc(N3CCOCC3)cc2)sc2ncnc(Nc3ccc(F)c(Cl)c3)c12
Given back: 9.71
